conditions: in DMAc, 298.15 K
reported_endpoint: solubility (mole fraction)
Write no unit; give the number alone.

Data request: // solubility (mole fraction) lookup, key: Nc1ccc(Oc2ccc(N)cc2)cc1
Data returned: 0.144

###

details: in DMF, 293.15 K
reported_endpoint: solubility (mole fraction)
Write no unit; give the number alone.

Data request: // solubility (mole fraction) lookup, key: Nc1ccc(Oc2ccc(N)cc2)cc1
Data returned: 0.113

###

conditions: in DMF, 328.15 K
reported_endpoint: solubility (mole fraction)

Data request: // solubility (mole fraction) lookup, key: Nc1ccc(Oc2ccc(N)cc2)cc1
Data returned: 0.152
